Cited source for all entries: patent US20200407435A1

- system.name: T1, cynomolgus (cyno) ANGPT2 (cynomolgus, UniProt A0A2K5VNX6 275-496)
- T1 construct: domain: FLD domain; also called cyno ANGPT2 FLD domain
- T1 sequence: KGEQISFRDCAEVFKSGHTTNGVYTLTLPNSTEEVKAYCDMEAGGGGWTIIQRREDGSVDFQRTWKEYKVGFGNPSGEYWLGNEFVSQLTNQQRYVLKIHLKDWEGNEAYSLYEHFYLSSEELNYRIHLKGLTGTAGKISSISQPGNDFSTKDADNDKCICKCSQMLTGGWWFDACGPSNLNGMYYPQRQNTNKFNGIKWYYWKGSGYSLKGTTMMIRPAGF
- test.protocol: SPR (ProteOn XPR36), antibody captured on Protein A/G, ANGPT2 as analyte, 1:1 Langmuir fit
readout.name: Kd
The answer should read as a number with its unit following.

As a guide, the following entries are already answered.
>>> observed("ANGPT2-opt-2 (humanized) (antibody, human IgG1, kappa, V domains shown, also called Ang2-opt-2; ANGP12-opt-2) VH: QVQLVQSGAEVKKPGSSVKVSCKASGYIFIEYFINWVRQAPGQGLEWMGKIGPGSGSSSSNEKFKGRVTITADKSTSTAYMELSSLRSEDTAVYYCAREAFDYEGDYYGMAYWGQGTLVTVSS VL: EIVMTQSPATLSVSPGERATLSCKSSQSLLASGNQKNFLAWYQQKPGQAPRLLIYGASTRESGIPARFSGSGSGTEFTLTISSLQSEDFAVYYCQNDHSYPITFGQGTKLEIKR")
"0.626 nM"
>>> observed("ANGPT2-opt-19 (humanized) (antibody, human IgG1, kappa, V domains shown, also called Ang2-opt-19) VH: QVQLVQSGAEVKKPGSSVKVSCKASGYIFIDYFINWVRQAPGQGLEWMGKIGPGSGSSSSNEKFKGRVTITADKSTSTAYMELSSLRSEDTAVYYCAREAFDYDGDYYGMAYWGQGTLVTVSS VL: EIVMTQSPATLSVSPGERATLSCRASQSVLSSGNQKSFLAWYQQKPGQAPRLLIYGASTRETGIPARFSGSGSGTEFTLTISSLQSEDFAVYYCQQDHSYPITFGQGTKLEIKR")
"0.844 nM"

Query: Provide Kd value for the following binder: ANGPT2-opt-13 (humanized) (antibody, human IgG1, kappa, V domains shown, also called Ang2-opt-13; ANGPT-opt-13) VH: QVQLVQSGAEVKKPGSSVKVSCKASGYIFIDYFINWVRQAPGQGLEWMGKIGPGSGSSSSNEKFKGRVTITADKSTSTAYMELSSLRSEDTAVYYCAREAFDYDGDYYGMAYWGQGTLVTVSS VL: EIVMTQSPATLSVSPGERATLSCKSSQSLLSSGNQKSFLAWYQQKPGQAPRLLIYGASTRETGIPARFSGSGSGTEFTLTISSLQSEDFAVYYCQNDHSYPITFGQGTKLEIKR
Response: 0.146 nM
